test-system: Transmembrane protease serine 2 (Homo sapiens, UniProt O15393)
Sequence (O15393 1-255 limits assumed): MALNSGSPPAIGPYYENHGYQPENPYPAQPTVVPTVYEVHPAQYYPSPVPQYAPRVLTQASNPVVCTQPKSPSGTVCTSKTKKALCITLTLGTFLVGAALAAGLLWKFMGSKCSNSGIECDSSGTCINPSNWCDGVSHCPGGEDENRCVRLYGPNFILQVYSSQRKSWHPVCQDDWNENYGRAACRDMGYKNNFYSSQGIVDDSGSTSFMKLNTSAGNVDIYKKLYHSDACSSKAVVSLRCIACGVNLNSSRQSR
Sequence (O15393 256-492 limits assumed): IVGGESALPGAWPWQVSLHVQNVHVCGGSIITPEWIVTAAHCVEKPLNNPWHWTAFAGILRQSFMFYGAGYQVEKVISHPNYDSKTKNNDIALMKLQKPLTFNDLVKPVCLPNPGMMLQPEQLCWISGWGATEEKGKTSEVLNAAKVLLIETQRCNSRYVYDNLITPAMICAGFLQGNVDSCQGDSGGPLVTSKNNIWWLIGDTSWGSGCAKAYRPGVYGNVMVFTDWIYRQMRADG
experiment-notes: Inhibition of recombinant catalytic domain of TMPRSS2 expressed in Escherichia coli using Dcyclohexylalanine- Pro-Arg-AMC as substrate by fluorescence plate reader analysis
test-readout: pKi
Field pKi (float): negative decimal logarithm of the concentration in molar.

Any idea what pKi was measured for N=C(N)NCCC[C@@H](NS(=O)(=O)Cc1ccccc1)C(=O)N1CCC[C@H]1C(=O)NCc1ccc(C(=N)N)cc1 ?
7.70

Any idea what pKi was measured for CCC(NCc1ccc(C(=N)N)cc1)C(=O)[C@@H](CCCNC(=N)N)NS(=O)(=O)Cc1ccccc1 (stereo partly drawn) ?
7.28

Any idea what pKi was measured for CCC[C@H](NCc1ccc(C(=N)N)cc1)C(=O)[C@@H](CCCNC(=N)N)NS(=O)(=O)Cc1ccccc1 ?
7.17

* * *

test-system: Plasminogen (Homo sapiens, UniProt P00747)
Sequence (P00747 97-580 limits assumed): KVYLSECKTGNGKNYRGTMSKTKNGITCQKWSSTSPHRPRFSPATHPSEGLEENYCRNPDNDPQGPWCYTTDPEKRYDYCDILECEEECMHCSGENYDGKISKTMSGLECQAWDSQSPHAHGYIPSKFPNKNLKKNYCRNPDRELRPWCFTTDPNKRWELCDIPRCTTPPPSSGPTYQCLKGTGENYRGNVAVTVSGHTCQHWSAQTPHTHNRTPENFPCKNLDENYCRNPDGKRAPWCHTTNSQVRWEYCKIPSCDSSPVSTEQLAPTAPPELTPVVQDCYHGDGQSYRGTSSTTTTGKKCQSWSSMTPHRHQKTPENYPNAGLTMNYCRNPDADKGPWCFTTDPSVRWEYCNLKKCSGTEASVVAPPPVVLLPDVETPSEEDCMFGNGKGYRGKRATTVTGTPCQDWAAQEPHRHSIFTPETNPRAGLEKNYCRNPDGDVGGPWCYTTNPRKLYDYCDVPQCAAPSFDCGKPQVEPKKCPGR
Sequence (P00747 581-810 limits assumed): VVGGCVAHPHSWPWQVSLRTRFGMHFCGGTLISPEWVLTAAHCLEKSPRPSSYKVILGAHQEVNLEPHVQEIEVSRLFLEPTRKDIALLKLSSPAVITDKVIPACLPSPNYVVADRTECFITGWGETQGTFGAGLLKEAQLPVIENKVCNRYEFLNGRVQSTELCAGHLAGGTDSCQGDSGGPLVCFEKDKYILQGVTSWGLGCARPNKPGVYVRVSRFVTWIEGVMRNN
pKi: −log10 of the molar value.
Output Y for pKi not less than 6; output N otherwise.

* CCC(NCc1ccc(C(=N)N)cc1)C(=O)[C@@H](CCCNC(=N)N)NS(=O)(=O)Cc1ccccc1 (stereo partly drawn) | N
* N=C(N)c1ccc(CNC(=O)[C@@H]2CCCN2C(=O)[C@@H](CCC(=O)N2CCN(c3ncccn3)CC2)NS(=O)(=O)Cc2ccccc2)cc1 | N
* N=C(N)NCCC[C@@H](NS(=O)(=O)Cc1ccccc1)C(=O)N1CCC[C@H]1C(=O)NCc1ccc(C(=N)N)cc1 | Y
* N=C(N)NCCC[C@@H](NS(=O)(=O)Cc1ccccc1)C(=O)[C@H](CO)NCc1ccc(C(=N)N)cc1 | Y
* C[C@H](NCc1ccc(C(=N)N)cc1)C(=O)[C@@H](CCCN=C(N)N)NS(=O)(=O)Cc1ccccc1 | Y

In plain terms: is recorded pKi at least 6 for CCC[C@H](NCc1ccc(C(=N)N)cc1)C(=O)[C@@H](CCCNC(=N)N)NS(=O)(=O)Cc1ccccc1 ?
N

In plain terms: is recorded pKi at least 6 for N=C(N)c1ccc(CNC(=O)[C@@H]2CCCN2C(=O)[C@@H](CCCCN=C(N)N)NS(=O)(=O)Cc2ccccc2)cc1 ?
Y

* * *

test-system: Prothrombin (Homo sapiens, UniProt P00734)
Rule: Ki below 7 nM gives Yes, anything at or above gives No.

• CCC(NCc1ccc(C(=N)N)cc1)C(=O)[C@@H](CCCNC(=N)N)NS(=O)(=O)Cc1ccccc1 (stereo not given in full) = No
• N=C(N)c1ccc(CNC(=O)[C@@H]2CCCN2C(=O)[C@@H](CCC(=O)N2CCN(c3ncccn3)CC2)NS(=O)(=O)Cc2ccccc2)cc1 = Yes
• CCC[C@H](NCc1ccc(C(=N)N)cc1)C(=O)[C@@H](CCCNC(=N)N)NS(=O)(=O)Cc1ccccc1 = No
• N=C(N)c1ccc(CNC(=O)[C@@H]2CCCN2C(=O)[C@@H](CCCCN=C(N)N)NS(=O)(=O)Cc2ccccc2)cc1 = Yes

Moving on to another compound below.
Hi there! Is Ki for CC(C)(C)OC(=O)CC[C@@H](NS(=O)(=O)Cc1ccccc1)C(=O)N1CCC[C@H]1C(=O)NCc1ccc(C(=N)N)cc1 below 7 nM, do you know?
Yes

* * *

test-system: UniProt O60235
Sequence (O60235 whole entry): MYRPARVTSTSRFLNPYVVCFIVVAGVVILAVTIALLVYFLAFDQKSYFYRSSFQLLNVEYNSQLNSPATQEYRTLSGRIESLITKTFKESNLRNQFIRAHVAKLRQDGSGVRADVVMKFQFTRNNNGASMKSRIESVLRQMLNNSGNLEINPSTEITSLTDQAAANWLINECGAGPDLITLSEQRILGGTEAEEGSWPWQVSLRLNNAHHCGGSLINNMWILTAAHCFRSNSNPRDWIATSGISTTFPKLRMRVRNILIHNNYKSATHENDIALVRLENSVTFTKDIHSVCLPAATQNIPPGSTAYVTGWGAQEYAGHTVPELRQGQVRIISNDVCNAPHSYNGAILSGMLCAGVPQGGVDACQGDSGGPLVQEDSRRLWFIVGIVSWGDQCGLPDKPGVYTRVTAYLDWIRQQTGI
experiment-notes: Inhibition of human recombinant airway trypsin-like protease HAT using D-cyclohexylalanine-Pro-Arg-AMC as substrate by fluorescence plate reader analysis
test-readout: log10 Ki (log10 of the value in nM)
Recorded Ki (log10, nM)

For orientation, consider the following solved cases.
- CC(C)(C)OC(=O)C[C@H](NCc1ccc(C(=N)N)cc1)C(=O)[C@@H](CCCNC(=N)N)NS(=O)(=O)Cc1ccccc1: 2.71
- N=C(N)NCCC[C@H](NCc1ccc(C(=N)N)cc1)C(=O)[C@@H](CCCNC(=N)N)NS(=O)(=O)Cc1ccccc1: 2.66
- N=C(N)c1ccc(CNC(=O)[C@@H]2CCCN2C(=O)[C@@H](CC(=O)N2CCN(c3ncccn3)CC2)NS(=O)(=O)Cc2ccccc2)cc1: 1.63

Any idea what log10 Ki was measured for N=C(N)c1ccc(CNC(=O)CNC(=O)[C@@H](CCCN=C(N)N)NS(=O)(=O)Cc2ccccc2)cc1 ?
2.63

Any idea what log10 Ki was measured for N=C(N)c1ccc(CNC(=O)[C@@H]2CCCN2C(=O)[C@@H](CCC(=O)N2CCNCC2)NS(=O)(=O)Cc2ccccc2)cc1 ?
1.83

Any idea what log10 Ki was measured for N=C(N)c1ccc(CNC(=O)[C@@H]2CCCN2C(=O)[C@@H](Cc2ccc(C(=N)N)cc2)NS(=O)(=O)Cc2ccccc2)cc1 ?
2.23
